- TARGET ENTITY: T1, soluble KDR extracellular domain (ECD) (Calbiochem) (human, UniProt P35968 20-764)
- T1 construct: extracellular domain; Bought protein; also called KDR-ECD; VEGF Receptor 2 D1-7, Cat. #676490
- T1 sequence (P35968 20-764): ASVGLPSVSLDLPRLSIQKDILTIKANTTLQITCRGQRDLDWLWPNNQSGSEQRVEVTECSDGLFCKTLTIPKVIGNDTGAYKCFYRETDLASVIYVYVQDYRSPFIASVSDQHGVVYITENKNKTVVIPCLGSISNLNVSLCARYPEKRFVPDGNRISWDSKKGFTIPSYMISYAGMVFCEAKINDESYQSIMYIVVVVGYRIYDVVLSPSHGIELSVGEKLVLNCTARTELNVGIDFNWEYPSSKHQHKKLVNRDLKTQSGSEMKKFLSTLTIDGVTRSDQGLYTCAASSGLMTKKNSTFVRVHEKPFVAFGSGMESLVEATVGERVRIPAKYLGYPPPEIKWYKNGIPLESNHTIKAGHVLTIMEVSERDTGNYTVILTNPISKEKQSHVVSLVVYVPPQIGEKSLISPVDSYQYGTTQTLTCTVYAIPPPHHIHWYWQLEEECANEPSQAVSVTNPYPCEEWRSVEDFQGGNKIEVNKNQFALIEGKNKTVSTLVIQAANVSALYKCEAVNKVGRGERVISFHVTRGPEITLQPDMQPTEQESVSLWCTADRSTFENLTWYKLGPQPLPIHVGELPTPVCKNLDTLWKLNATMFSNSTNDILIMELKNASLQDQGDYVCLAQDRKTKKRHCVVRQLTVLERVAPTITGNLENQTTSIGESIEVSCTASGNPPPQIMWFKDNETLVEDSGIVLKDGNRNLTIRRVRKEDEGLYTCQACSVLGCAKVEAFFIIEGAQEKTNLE
- METHOD NOTES: High Antigen ELISA, KDR coat 500 ng/mL, supernatant 1:75
- Procedure: ELISA plates were coated with a greater amount of KDR (at 500 ng/mL) in comparison with the Limited Antigen Quantitation assay described below. Sample containing antibody (Ab) was titrated on the KDR-coated ELISA plates and was incubated overnight at 4° C. to allow Ab binding to approach equilibrium. […] The high KDR concentration and the overnight incubation limited the effect of Ab affinity, allowing quantitation of the relative amount of KDR-specific Ab present in each sample.
MEASURE NAME: ELISA reading

# BINDER, ELISA reading
data = [
    ("1G6 (antibody, V domains shown, Fully human mAb from XenoMouse hybridoma, tested as hybridoma supernatant) VH: EVQLLESGGGLVQPGGSLRLSCAASGFTFSSYAMSWVRQAPGKGLEWVSAISGGGGNTYYADSVKGRFTISRDNSKNTLYLQMNSLRAEDTAVYYCSKVATDYWGQGTLVTVSS VL: QPVLTQSSSASASLGSSVKLTCTLSSGHSSYIIAWHQQQPGKAPRYLMKLEGSGSYNKGSGVPDRFSGSSSGADRYLTISNLQFEDEADYYCETWDSYTVVFGGGTKLTVL", 6),
    ("22B8 (antibody, V domains shown, Fully human mAb from XenoMouse hybridoma, tested as hybridoma supernatant) VH: QLQLQESGPGLVKPSETLSLTCTVSGGSISSRYYYWGWVRQPPGKGLEWIGTIYYSGHTYYNPSLKTRVTISVDTSKNQFSLKLISVTAADTAVYYCATQQLVLYYFDFWGQGTLVTVSS VL: EIVLTQSPGTLSLSPGERAALSCRASQSISSSYLAWYQQRPGQAPRLLIYGASSRATGIPDRFNGSGSGTDFTLTISRLEPEDFAVYYCQQFGSSITFGQGTRLEIK", 6),
]

Kindly consider the entry below.
Enquiry: Any idea what ELISA reading was measured for 33D5 (antibody, V domains shown, Fully human mAb from XenoMouse hybridoma, tested as hybridoma supernatant) VH: QVQLVQSGAEVKKPGASVKVSCKASGYTFGSYDINWVRQATGQGLEWMGWMNPNSGNTGYAQKFQGRVTLTRNTSIRTVYMELSSLRSEDTAVYYCARGGYSNLGWFDPWGQGSLVTVSS VL: DIQMTQSPSSVSVSVGDRVTITCRASQGISSWLAWYQQKPGKAPKLLIYAASSLQSGVPSRFSGSGSGTDFTLTISSLQPEDFATYYCQQANSFPFTFGPGTKVDIK ?
Return: 4.56
